Target: T1, AgeI S138A (UniProt Q9KHV6 1-278, S138A)
T1 sequence: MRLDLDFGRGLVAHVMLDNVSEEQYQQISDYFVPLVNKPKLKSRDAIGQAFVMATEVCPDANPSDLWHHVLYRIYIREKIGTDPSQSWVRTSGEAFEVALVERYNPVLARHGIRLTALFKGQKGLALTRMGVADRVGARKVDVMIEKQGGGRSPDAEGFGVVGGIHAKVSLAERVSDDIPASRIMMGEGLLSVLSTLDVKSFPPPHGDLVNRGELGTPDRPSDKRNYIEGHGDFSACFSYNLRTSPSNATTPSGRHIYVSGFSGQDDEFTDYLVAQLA
Assay: EMSA
valueType: pKd
Formally, pKd is defined as -log10 of the concentration c, with c in mol/L.

Query :: Output pKd of SP (specific) (dsDNA) DNA 1: AGACCCACGCTCACCGGTTCCAGATTTATC DNA 2: GATAAATCTGGAACCGGTGAGCGTGGGTCT
Result :: 8.92
